- assayOverview: Aqueous solubility of compound at pH 7.4
- Assay type: physicochemical
measuredAttribute: solubility (µM)
Could you give me the number in µM? Just the number is fine.

CC(C)(O)c1nc(-c2cccc(-c3ncc(-c4cnc(-c5ccccc5)nc4)[nH]3)c2)no1: 3.3

Query: Please give the measured solubility for this compound: CC(C)(O)c1nc(-c2cccc(-c3ncc(-c4cnc(-c5ccccn5)nc4)[nH]3)c2)no1
Result: 17.5

---

// values below are reported ΔTm
- testedOn: Hematopoietic prostaglandin D synthase (Homo sapiens, UniProt O60760)
- Sequence (O60760 whole entry): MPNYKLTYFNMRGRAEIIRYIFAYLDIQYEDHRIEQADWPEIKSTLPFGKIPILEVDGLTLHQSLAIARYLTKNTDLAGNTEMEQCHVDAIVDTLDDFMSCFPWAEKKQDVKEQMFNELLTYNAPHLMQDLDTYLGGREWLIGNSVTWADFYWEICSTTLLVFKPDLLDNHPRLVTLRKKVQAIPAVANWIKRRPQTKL
- assayOverview: Binding affinity to HPGDS (unknown origin) assessed as change in melting temperature by thermal shift assay
Output spec: scalar in °C, unitless text.

The examples below pair each entry with its known result.
c1ccc(-c2ncc(-c3cnc(-c4cccnc4)[nH]3)cn2)cc1: 4.9
O=C(NCc1ccccc1)c1cnc(-c2ccccc2)nc1: 0.4
Cc1nc(-c2ccccc2)[nH]c1-c1cnc(-c2ccccc2)nc1: 4.3
c1ccc(-c2ncc(-c3ccc(-c4ccccn4)nc3)[nH]2)cc1: 4.2
c1ccc(-c2ncc(-c3cnc(-c4ccccc4)[nH]3)cn2)cc1: 3.6
CC(C)(O)c1nc(-c2cccc(CNC(=O)c3cnc(-c4ccccn4)nc3)c2)no1: 0.5
O=C(NCc1ccccc1)c1ccc(-c2ccccn2)nc1: 0.1
CC(C)(O)c1nc(-c2cccc(CNC(=O)c3ccc(-c4ccccn4)nc3)c2)no1: 0.1

Query: Fill in the blank: the reported ΔTm of CC(C)(O)c1nc(-c2cccc(-c3ncc(-c4cnc(-c5ccccc5)nc4)[nH]3)c2)no1 is ____.
Result: 6.9

Query: Quick one: ΔTm for CC(C)(O)c1nc(-c2cccc(CNC(=O)c3cnc(-c4ccccc4)nc3)c2)no1 ?
Result: 0.4
